These entries and their values trace back to patent US20190367631A1.

Biological target: T1, human MSR1 extracellular domain expressed with a N-terminal nonahistidine tag (His9-hMSR1); R&D Systems, Cat … (human, UniProt P21757 77-451)
T1 construct: extracellular domain; also called His-hMSR1; 9xHis-hMSR1; not shown: N-terminal nonahistidine tag
T1 sequence (looked up): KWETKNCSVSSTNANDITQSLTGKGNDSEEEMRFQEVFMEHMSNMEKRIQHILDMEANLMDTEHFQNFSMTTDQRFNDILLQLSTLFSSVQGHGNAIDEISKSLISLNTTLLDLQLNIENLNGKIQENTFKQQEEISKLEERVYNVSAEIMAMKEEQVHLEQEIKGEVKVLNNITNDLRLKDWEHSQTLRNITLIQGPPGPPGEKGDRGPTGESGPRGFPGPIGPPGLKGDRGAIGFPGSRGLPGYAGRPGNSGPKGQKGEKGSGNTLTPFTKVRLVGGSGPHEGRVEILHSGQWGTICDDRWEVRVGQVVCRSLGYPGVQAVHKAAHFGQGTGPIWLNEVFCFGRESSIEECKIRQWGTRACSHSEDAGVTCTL
Assay: SPR Biacore, 25 C, antibody captured;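 also: rates from 1:1 fit with mass transport limitation of real-time sensorgrams, HEPES-buffered saline with EDTA and Tween-20 at pH 7.4, KD and t½ derived from the kinetic rates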
Provide the recorded koff for the entries that follow.
One number for each entry, in s⁻¹.

Report koff for each item below.
1. H1H27734P-N297Q (antibody, V domains shown, Human IgG1 Fc with N297Q point mutation) VH: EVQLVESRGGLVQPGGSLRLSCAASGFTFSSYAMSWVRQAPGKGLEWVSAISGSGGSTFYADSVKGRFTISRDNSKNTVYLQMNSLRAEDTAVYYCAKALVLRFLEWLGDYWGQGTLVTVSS VL: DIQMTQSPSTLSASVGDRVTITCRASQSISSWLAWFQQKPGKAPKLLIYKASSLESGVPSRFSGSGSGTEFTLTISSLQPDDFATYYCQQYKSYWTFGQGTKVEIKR
2. H1H27739P-N297Q (antibody, V domains shown, Human IgG1 Fc with N297Q point mutation) VH: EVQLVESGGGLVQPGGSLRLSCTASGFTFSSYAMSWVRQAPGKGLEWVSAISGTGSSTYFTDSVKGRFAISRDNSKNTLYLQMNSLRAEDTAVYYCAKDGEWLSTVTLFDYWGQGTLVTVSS VL: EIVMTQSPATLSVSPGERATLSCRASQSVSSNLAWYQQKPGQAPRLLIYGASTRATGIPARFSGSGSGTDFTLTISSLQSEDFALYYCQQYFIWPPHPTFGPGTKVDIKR
3. H1H27729P-N297Q (antibody, V domains shown, Human IgG1 Fc with N297Q point mutation) VH: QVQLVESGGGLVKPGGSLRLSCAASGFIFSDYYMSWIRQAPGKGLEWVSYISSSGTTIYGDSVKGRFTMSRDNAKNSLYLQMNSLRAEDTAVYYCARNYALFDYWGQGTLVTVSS VL: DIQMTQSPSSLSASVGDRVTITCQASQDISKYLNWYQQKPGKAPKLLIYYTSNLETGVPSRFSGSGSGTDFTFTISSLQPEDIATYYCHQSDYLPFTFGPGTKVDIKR

Ans:
[0.00111, 0.00103, 0.00107]
